Biological target: human TLX (Homo sapiens, UniProt Q9Y466)
Construct: expressed in transfected cells; host or cells: HEK293T
Sequence (Q9Y466 155-383 limits assumed): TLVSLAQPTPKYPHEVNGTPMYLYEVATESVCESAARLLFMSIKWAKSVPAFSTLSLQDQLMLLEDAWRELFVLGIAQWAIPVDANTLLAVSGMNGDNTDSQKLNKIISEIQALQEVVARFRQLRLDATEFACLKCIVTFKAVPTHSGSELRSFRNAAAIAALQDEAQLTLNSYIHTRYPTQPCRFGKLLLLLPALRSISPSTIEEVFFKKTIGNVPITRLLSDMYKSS
Assay: Gal4 hybrid reporter gene assay (TLX modulation)
Type: cell-based
Set-up: key: fraction of DMSO control (DMSO = 1)
Conditions: at 50 µM; DMSO control = 1
ENDPOINT NAME: relative reporter activity

Query: Record request: relative reporter activity value, item Cc1cc(C)c(-c2cc(N)cc(C(F)(F)F)c2)s1 [compound 56]
Result: 3.4±0.3

###

Target: human TLX (Homo sapiens, UniProt Q9Y466)
Assay: Gal4 hybrid reporter gene assay (TLX modulation)
Settings: Gal4-TLX hybrid reporter in HEK293T cells, 16 h incubation
ENDPOINT NAME: pEC50
Would you please state pEC50, meaning minus log10 of the concentration in mol/L, as a bare number?

// solved cases for pEC50 follow
Cn1cc(-c2cc(N)cc(C(F)(F)F)c2)c2cccnc21 :: 5.46
COc1ccc(C(=O)Nc2cc(-n3cnc(C)c3)cc(C(F)(F)F)c2)cc1 :: 5.28

Could you now look at the following compound, please?
Query: Lab note: need pEC50 with human TLX (Homo sapiens, UniProt Q9Y466) for entry Nc1cc(-c2cnoc2)cc(C(F)(F)F)c1 , please look it up.
Result: 5.49
